// data source = PubChem BioAssay

test: viability loss with induced miR-34 in A549 – imaging, A549 dox-inducible miR-34, nuclei and caspase counts, primary screen (AID 1347080); conditions: A549 miR-34 inducible, Hoechst nuclei count, 48 h; measured here: total cells with miR-34 induction; stronger effect = lower value; also: test concentration not given here
So I've got a bunch of compounds here, and I need their cell count values.
Returns: the value as a bare number; no unit string appended.

Asked: Which value of cell count has been reported for CC(C)CCNC(=O)C(CC(C)C)NC(=O)C1OC1C(=O)O (stereo unspecified) in the records?
Given back: 8670

Asked: Query: cell count; subject: Cn1nccc1-c1cc(C(=O)NCc2ccc(S(C)(=O)=O)cn2)c(=O)n(-c2cccc(C(F)(F)F)c2)c1
Given back: 8120

Asked: Given CC(C=CC(=O)NO)=CC(C)C(=O)c1ccc(N(C)C)cc1 (stereo unspecified) , state its recorded cell count.
Given back: 830

Asked: Quick one: cell count for Nc1nc2cc(C(=O)N3CCN(C(=O)c4ccco4)CC3)ccc2s1 ?
Given back: 8870

Asked: Please report the recorded cell count for CCCCn1c(=O)c2c(ncn2CC(C)=O)n(CCCC)c1=O .
Given back: 10200

Asked: // lookup cell count for O=C(O)c1ccc(O)cc1O
Given back: 8740

Asked: # get_value(readout='cell count', item= CC1(C)SC2C(N=CN3CCCCCC3)C(=O)N2C1C(=O)O (stereo unspecified) )
Given back: 9640

Asked: So what does the record say about cell count for CC(=O)O[C@@]1(C(C)=O)CC[C@H]2[C@@H]3CC(C)C4=CC(=O)CC[C@]4(C)[C@@H]3CC[C@@]21C (stereo partly specified) ?
Given back: 7550

Asked: Give its cell count value. Item: CCC(=C(CC)c1ccc(O)cc1)c1ccc(O)cc1
Given back: 7280

Asked: # query: cell count of entry O=C(Nc1c[nH]c2ccccc12)c1cccnc1
Given back: 8140

Asked: Using the record for O=C(Nc1c[nH]c2ccccc12)c1cc(-c2ccc(F)cc2)n[nH]1 , report its cell count.
Given back: 7140
